meta.source: PubChem BioAssay (NCI)

Tested on: SF-268 CNS
test.method.notes: NCI tumour cell line growth inhibition, 48 h; in the data active = GI50 below about 0.43 µM; inactive = the rest
Classes used: t = active, f = inactive

Nc1c(C(=O)Nc2ccccn2)sc2nc3c(cc12)CCCCC3: f
CCCCCCCCCCCC[C@H](O)[C@H]1CC[C@H]([C@H](O)CCCC[C@H](O)CCCCC[C@@H](O)CC2=C[C@H](C)OC2=O)O1: f
COc1ccc(CN2C(=O)C(Cl)=C(Nc3cccc(O)c3)C2=O)cc1: f
O=C(NC1CCC(Br)CC1)C1CCCC(S(=O)(=O)NC2CCCCC2)C1 (stereo not given): f
c1ccc(CSc2nnc3c4c5c(sc4nc(-c4cccnc4)n23)CCCCCC5)cc1: f
CCC(=C/[C@H](C)C/C=C/C(C)=C/[C@@H](C)C(=O)[C@@H](C)[C@H](O)[C@@H](C)CC)/C=C/[C@@H]1OC(=O)C=C[C@@H]1C: t
O=C(O)c1sccc1O: f
O=[N+]([O-])c1ccc2scc3c4ccccc4nc-3c2c1: f
O=C(CNc1c(Cl)cccc1Cl)Nc1ccc(-c2nc3ccccc3s2)cc1: f
CCN(CC)c1ccc2c(cc1=O)[C@@H](NC(C)=O)CCc1cc(OC)c(OC)c(OC)c1-2: f

---

System: COLO 205 colon
test.method.notes: NCI tumour cell line growth inhibition, 48 h
Listed next: entries and their corresponding TGI.
measured.property: TGI (µM)

CCN(CC)c1ccc2c(cc1=O)[C@@H](NC(C)=O)CCc1cc(OC)c(OC)c(OC)c1-2: 0.5
CC(=O)OC1Oc2ccc(C)cc2-c2oc(=O)c(-c3cc4ccccc4oc3=O)cc21 (stereo not drawn): 15.7
CC(=O)Nc1ccc(NNc2cc(=O)n(C)c(=O)[nH]2)cc1: 24
CCCCCCCCCCCC[C@H](O)[C@H]1CC[C@H]([C@H](O)CCCC[C@H](O)CCCCC[C@@H](O)CC2=C[C@H](C)OC2=O)O1: 32.7

---

System: UO-31 renal
test.method.notes: NCI tumour cell line growth inhibition, 48 h
# maps each entry to its TGI
measured.property: TGI

N#Cc1ccc(Sc2ccccc2)cc1C#N: > 100 µM
Cc1cc(Nc2ncc(F)c(N[C@H]3[C@@H](C(N)=O)[C@@H]4C=C[C@H]3C4)n2)ccc1N1CCN(C)CC1: 4.64 µM
CSc1nc(=Nc2ccccc2)sn1-c1ccccc1: 39.8 µM
C=C1C/C(=C/C)C(=O)O[C@@H]2CCN3CC=C(COC(=O)[C@]1(C)O)[C@H]23: > 100 µM
Cc1nc2ccccc2c(=O)n1NC(=S)Nc1ccccc1: > 100 µM
O=c1oc2ccc(Cl)cc2cc1C1=CSC2=NCCN12: 51.4 µM
CCOC(=O)C1(c2ccccc2)CCCNCC1 (stereo not given): > 100 µM
O=[N+]([O-])c1ccc(N=Nc2c(O)[nH]c3ccc(Br)cc23)cc1: > 73.5 µM
CCC(=C/[C@H](C)C/C=C/C(C)=C/[C@@H](C)C(=O)[C@@H](C)[C@H](O)[C@@H](C)CC)/C=C/[C@@H]1OC(=O)C=C[C@@H]1C: 0.214 µM
CN1CCN(CCCCN2c3ccccc3Sc3ccc(C(=O)c4ccccc4)cc32)CC1: 6.27 µM
CNC(=S)NC(=S)N(C)C: > 100 µM
Fc1ccc(-c2nnc3sc(-c4cc(Cl)cc(Cl)c4)nn23)cc1Cl: > 100 µM
CC[C@]1(Cc2ccc(OC)c(OC)c2)[C@@H]2C[C@@H](C(=O)OC)ON2O[C@H](OC2CCCC2(c2ccccc2)c2ccccc2)[C@@H]1OC(C)=O (stereo not given in full): > 100 µM
CC(=O)OC1Oc2ccc(C)cc2-c2oc(=O)c(-c3cc4ccccc4oc3=O)cc21 (stereo not given): 29.8 µM
CCOC(=O)Cn1nc2ccc(Nc3c(C)[n+]([O-])c4cc(F)c(OCC)cc4[n+]3[O-])cc2n1: > 100 µM
COc1ccc(Cc2nc3cc([N+](=O)[O-])ccc3n2C[C@@H]2CCCN3CCCCC23)cc1 (stereo not given in full): 21.1 µM
O=C1Nc2ccccc2C1(c1c[nH]c2ccccc12)c1c[nH]c2ccccc12: 3.04 µM
c1ccc(CSc2nnc3c4c5c(sc4nc(-c4cccnc4)n23)CCCCCC5)cc1: 15.1 µM
COc1ccc(CN2C(=O)C(Cl)=C(Nc3cccc(O)c3)C2=O)cc1: 95.1 µM
Oc1c(Cl)cc(Cl)c2ccc(Cn3cc(-c4cc(F)cc(F)c4)nn3)nc12: 9.93 µM

---

Tested on: OVCAR-4 ovarian
test.method.notes: NCI tumour cell line growth inhibition, 48 h
In this section we review reported TGI values for a set of compounds.
measured.property: TGI

COC(=O)[C@]12CC[C@H]3CN(C(=O)OCc4ccccc4)[C@H]([C@H]31)[C@H](C(=O)OCC[Si](C)(C)C)N2S(=O)(=O)c1ccc(C)cc1: > 100 µM
CCc1nc(N)nc(N)c1-c1ccc(Cc2ccccc2)c([N+](=O)[O-])c1: > 93.3 µM
COc1cc2c(cc1OCCCCCN1CCN(c3cc(=O)oc4ccccc34)CC1)N=C[C@@H]1CCCN1C2=O: 1.71 µM
COc1ccc2[nH]c(C(O)(Cc3cccnc3)Cc3cccnc3)cc2c1: > 100 µM
NC(=O)n1ncc(Cl)c(Cl)c1=O: > 100 µM

---

Test system: SW-620 colon
test.method.notes: NCI tumour cell line growth inhibition, 48 h
Known TGI of a selection of compounds
measured.property: TGI

C=C(C)C(CC=C(C)C)Cc1c(O)cc(OC)c2c1OC(c1ccc(O)cc1O)C(O)C2=O (stereo not given): 30.3 µM
COc1cc(CCCl)c(CC2=NCCc3cc(OC)c(OC)cc32)cc1OC: > 100 µM
Nc1nc(-c2ccccc2)cc(-c2ccccc2O)n1: > 100 µM
O=C1CC2(CCC(O)(c3cccc4ccccc34)C(C(=O)c3cccc4ccccc34)C2)C(=O)c2ccccc2N1 (stereo not given): > 100 µM
ClC1=C(Cl)C(Cl)=C(Cl)C1=Cc1ccccc1: 1.03 µM
CCC[C@H](N[C@H]1CCc2cc(F)cc(F)c2C1)C(=O)Nc1cn(C(C)(C)CNCC(C)(C)C)cn1: > 100 µM
COc1cc(NC(=O)c2ccc(C(F)(F)F)nc2Nc2cc(Cl)ccc2C)cc(OC)c1OC: 21.6 µM
O=[N+]([O-])c1ccc2scc3c4ccccc4nc-3c2c1: 1.7 µM
O=C1OC(CC(=O)c2ccccc2Cl)C(Cl)=C1Cl (stereo not given): > 100 µM
[N-]=[N+]=NCCCn1c2c(c3ccccc3c1=O)C(=O)c1cc(Br)ccc1-2: > 100 µM

---

The following compounds are listed with their measured GI50 values.
Test system: T-47D breast
test.method.notes: NCI tumour cell line growth inhibition, 48 h
measured.property: GI50

COc1ccc(F)cc1/C=C/C(=O)/C=C(/C=C/c1cc(F)ccc1OC)OB(F)F: 2170 nM
[N-]=[N+]=NCCCn1c2c(c3ccccc3c1=O)C(=O)c1cc(Br)ccc1-2: > 100000 nM
Nc1c(C(=O)Nc2ccccn2)sc2nc3c(cc12)CCCCC3: 1790 nM
COc1ccc2c(c1OC)CO[C@@H]2[C@H]1c2c(c(Br)c3c(c2OC)OCO3)CCN1C: 66800 nM
CC(=O)OC1Oc2ccc(C)cc2-c2oc(=O)c(-c3cc4ccccc4oc3=O)cc21 (configuration not stated): 1500 nM
Cn1c(-c2c(N)n(Cc3ccc(C(F)(F)F)cc3)c3nc(C#N)c(C#N)nc23)nc2ccccc21: 8760 nM
COc1cc(NC(=O)c2ccc(C(F)(F)F)nc2Nc2ccc(Cl)cc2C)cc(OC)c1OC: 2470 nM

---

Test system: T-47D breast
test.method.notes: NCI tumour cell line growth inhibition, 48 h
Here, each record is paired with measured GI50 data.
measured.property: GI50

CCn1cc(C(=O)N/N=C/c2ccc(Br)cc2)c(=O)c2cc(F)c(N3CCNC(C)C3)c(F)c21 (centres undefined): 1650 nM
CCCCCCCCCCCC[C@H](O)[C@H]1CC[C@H]([C@H](O)CCCC[C@H](O)CCCCC[C@@H](O)CC2=C[C@H](C)OC2=O)O1: 2820 nM
Cc1nc2ccccc2c(/C=C/c2ccc(Cl)cc2)c1C(=O)/C=C/c1ccc(F)cc1: 1100 nM
CC(=O)Nc1ccc2c(C3=C(c4cn(C)c5ccccc45)C(=O)NC3=O)cn(C)c2c1: > 25000 nM

---

Test system: LOX IMVI melanoma
test.method.notes: NCI tumour cell line growth inhibition, 48 h
measured.property: TGI (µM)

COc1ccc(Cc2nc3cc([N+](=O)[O-])ccc3n2C[C@@H]2CCCN3CCCCC23)cc1 (stereo not given in full): 36.4
CCC1(O)C(=O)OCc2c1cc1n(c2=O)Cc2cc3ccc(CO)cc3nc2-1 (stereo not given): 12.5
COc1ccc(-c2c(C#N)c(N)nc3c2COc2ccc(F)cc2-3)cc1OC: 9.84
Cc1cccc(NC2=C(Cl)C(=O)N(Cc3ccc(Cl)cc3)C2=O)c1: 16
